Test system: estrogen receptor
Test: Estrogen receptor activation test: overall estrogen activity and ERβ versus ERα comparison
Type: cell-based
Conditions: Hela cells, sample 10^−6 M
Would you mind telling me the reported ERβ/ERα (both % of estradiol at 10^−8M) of each entry?

Completed entries (count: 4):
compound | ERβ/ERα (both % of estradiol at 10^−8M)
O=C1C[C@@H](c2ccc(O[C@@H]3O[C@H](CO)[C@@H](O)[C@H](O)[C@H]3O)cc2)Oc2cc(O)cc(O)c21 [Naringenin-4′-O-glucoside, naringenin-4′-O-glucoside] | 1.07
O=C(O[C@@H]1Cc2c(O)cc(O)cc2O[C@@H]1c1ccc(O)c(O)c1)c1cc(O)c(O)c(O)c1 [(−)Epicatechin-3-O-gallate, (−)epicatechin-3-O-gallate] | 0.90
Cc1cc(O)c2c(c1)C(=O)c1cc(O)cc(O)c1C2=O | 1.03
Cc1cc(O)c2c(c1)C(=O)c1cccc(O)c1C2=O | 1.19

// field: ERβ/ERα (both % of estradiol at 10^−8M); key: O=C(CCc1ccc(O)cc1)c1c(O)cc(O)cc1O[C@@H]1O[C@H](CO)[C@@H](O)[C@H](O)[C@H]1O ; value = 1.13

From: patent US20130288989A1
